These measurements were taken from ChEMBL document CHEMBL5543094.

System: SARS-CoV-2
protocolSummary: Antiviral activity against SARS-CoV-2 Gamma TY7 variant infected in African green monkey Vero E6 cells measured 3 days post infection by WST-8 assay
Type: functional, organism-based
experimentalSetup: Severe acute respiratory syndrome coronavirus 2, Gamma TY7, Vero C1008, 72 h
Examples of compounds with documented EC50 follow.

{"smilesString": "CCC(CC)COC(=O)[C@H](C)N[P@](=O)(OC[C@H]1O[C@@](C#N)(c2ccc3c(N)ncnn23)[C@H](O)[C@@H]1O)Oc1ccccc1", "target": "SARS-CoV-2", "EC50 (nM)": 2600}
{"smilesString": "CC(C)(C)[C@H](NC(=O)C(Cl)(Cl)Cl)C(=O)N1C[C@H]2[C@@H]([C@H]1C(=O)N[C@H](C#N)C[C@@H]1CCCNC1=O)C2(C)C", "target": "SARS-CoV-2", "EC50 (nM)": 2000}
{"smilesString": "CC(C)(C)[C@H](NC(=O)C(F)(F)F)C(=O)N1C[C@H]2[C@@H]([C@H]1C(=O)N[C@H](C#N)C[C@@H]1CCNC1=O)C2(C)C", "target": "SARS-CoV-2", "EC50 (nM)": 4000}

###

Tested on: SARS-CoV-2
protocolSummary: Antiviral activity against SARS-CoV-2 Alpha QK002 variant infected in African green monkey Vero E6 cells measured 3 days post infection by WST-8 assay
Type: functional, organism-based
experimentalSetup: Severe acute respiratory syndrome coronavirus 2, Alpha QK002, Vero C1008, 72 h
pEC50: −log10 of the molar value.

{"smilesString": "CC(C)(C)[C@H](NC(=O)C(F)(F)F)C(=O)N1C[C@H]2[C@@H]([C@H]1C(=O)N[C@H](C#N)C[C@@H]1CCNC1=O)C2(C)C", "pEC50": 5.60}
{"smilesString": "CC(C)(C)[C@H](NC(=O)C(Cl)(Cl)Cl)C(=O)N1C[C@H]2[C@@H]([C@H]1C(=O)N[C@H](C#N)C[C@@H]1CCCNC1=O)C2(C)C", "pEC50": 6.10}
{"smilesString": "CCC(CC)COC(=O)[C@H](C)N[P@](=O)(OC[C@H]1O[C@@](C#N)(c2ccc3c(N)ncnn23)[C@H](O)[C@@H]1O)Oc1ccccc1", "pEC50": 5.46}
